Reference for the values: patent US9126933B2

assay: Stability assay in human plasma; assay type: in vitro ADME; settings: 1 μM compound
readout-type: half-life at 1 μM

Below, 2 compounds whose answers are already recorded.
smiles_notation=CN(C)CCOC(=O)c1ccc(Oc2cc(C(=O)Nc3c(Cl)cncc3Cl)ccc2OC(F)F)cc1 value_reported="15 to 60 min"
smiles_notation=CN(C)CCOC(=O)c1ccc(SCCCOc2cc(C(=O)Nc3c(Cl)cncc3Cl)ccc2OC(F)F)cc1 value_reported="< 15 min"

As a next step, examine the compound that follows.
Find the recorded half-life at 1 μM belonging to `O=C(CCCCOc1cc(C(=O)Nc2c(Cl)cncc2Cl)ccc1OC(F)F)Oc1ccccc1` and report it.
< 15 min
